c-Cbl (residues 47-435) (Homo sapiens (Human), UniProt P22681) Kd data
Sequence (P22681 47-435): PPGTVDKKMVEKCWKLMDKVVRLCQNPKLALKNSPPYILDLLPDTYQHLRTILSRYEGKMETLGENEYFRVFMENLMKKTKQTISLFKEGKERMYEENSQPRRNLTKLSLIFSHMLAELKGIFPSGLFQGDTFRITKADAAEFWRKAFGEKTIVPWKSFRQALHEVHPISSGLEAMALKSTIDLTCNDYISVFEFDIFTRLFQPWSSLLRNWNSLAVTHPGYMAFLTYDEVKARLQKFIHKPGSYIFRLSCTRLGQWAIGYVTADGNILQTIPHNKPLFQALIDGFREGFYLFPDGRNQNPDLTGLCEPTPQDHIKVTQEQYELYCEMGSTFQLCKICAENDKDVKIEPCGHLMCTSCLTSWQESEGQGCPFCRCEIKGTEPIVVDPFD
assayMetric: Kd (nM)

[1] CO[C@H]1C[C@](c2cccc(N3Cc4c(cc(CN5CCCC5)cc4C(F)(F)F)C3=O)c2)(c2nncn2C)C1
[2] Cn1cnnc1C(c1cccc(N2Cc3c(cc(CNC4(C)CCC4)cc3C(F)(F)F)C2=O)c1)[C@H]1C[C@H](Cl)C1 (single isomer, unassigned)
[3] Cn1cnnc1[C@@H](c1cccc(N2Cc3c(cc([C@H](NC4(C)CCC4)C4CCC4)cc3C(F)(F)F)C2=O)c1)C1COC1 (single isomer, unassigned)
Please list these compounds in decreasing order of Kd. Answer by listing the labels in the requested order.
1, 2, 3

###

molecular target: Cbl-b (Homo sapiens (Human), UniProt Q13191); experiment: Cbl-b LCK Ub TR-FRET assay (Cbl-b Lck HTRF); assay type: biochemical; details: ratio C-cbl Lck HTRF IC50 / Cbl-b Lck HTRF IC50
Sequence (Q13191 40-426): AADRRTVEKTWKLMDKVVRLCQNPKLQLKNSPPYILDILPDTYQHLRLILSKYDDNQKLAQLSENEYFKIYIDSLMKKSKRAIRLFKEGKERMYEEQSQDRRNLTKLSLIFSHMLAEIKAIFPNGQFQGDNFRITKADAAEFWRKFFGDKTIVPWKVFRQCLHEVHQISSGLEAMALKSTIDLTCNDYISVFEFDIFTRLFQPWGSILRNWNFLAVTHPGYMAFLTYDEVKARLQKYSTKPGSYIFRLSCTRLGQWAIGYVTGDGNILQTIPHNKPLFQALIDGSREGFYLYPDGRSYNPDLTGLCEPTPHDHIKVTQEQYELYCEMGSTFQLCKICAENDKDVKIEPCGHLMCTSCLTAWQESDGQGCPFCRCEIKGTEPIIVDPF
assayMetric: fold-selectivity (Cbl-b over C-cbl) (x)

Which fold-selectivity (Cbl-b over C-cbl) is reported for this compound? Cc1cc([C@H](c2nncn2C)C2COC2)cc(N2Cc3c(cc(CNC4(C)CCC4)cc3C(F)(F)F)C2=O)c1 (single isomer, unassigned)
1.3

Which fold-selectivity (Cbl-b over C-cbl) is reported for this compound? CO[C@H]1C[C@](c2cc(NC3CC3)cc(N3Cc4c(cc(CNC5(C)CCC5)cc4C(F)(F)F)C3=O)c2)(c2nncn2C)C1
0.97

Which fold-selectivity (Cbl-b over C-cbl) is reported for this compound? Cn1cnnc1C1(c2cccc(N3Cc4c(cc(CNC5(C)CCC5)cc4C(F)(F)F)C3=O)c2)CC2(CN(C3COC3)C2)C1
1.4

Which fold-selectivity (Cbl-b over C-cbl) is reported for this compound? Cn1cnnc1C(c1cccc(N2Cc3c(cc(CNC4(C)CCC4)cc3C(F)(F)F)C2=O)c1)[C@H]1C[C@H](CC#N)C1 (single isomer, unassigned) [Compound 363]
2.3

Which fold-selectivity (Cbl-b over C-cbl) is reported for this compound? CO[C@H]1C[C@](c2cc(NC3CCC3)cc(N3Cc4c(cc(CNC5(C)CCC5)cc4C(F)(F)F)C3=O)c2)(c2nncn2C)C1
4.0

Which fold-selectivity (Cbl-b over C-cbl) is reported for this compound? CCOC1CC([C@@H](c2cccc(N3Cc4c(cc(CNC5(C)CCC5)cc4C(F)(F)F)C3=O)c2)c2nncn2C)C1 (single isomer, unassigned) [Compound 267]
4.5

[A] Cn1cnnc1C1(c2cccc(N3Cc4c(cc(CNC5(C)CCC5)cc4C(F)(F)F)C3=O)c2)CC(OC(F)(F)F)C1 (single isomer, unassigned)
[B] C[C@@H]1C[C@@](c2cccc(N3Cc4c(cc(CNC5(C)CCC5)cc4C(F)(F)F)C3=O)c2)(c2nncn2C)O1
When their fold-selectivity (Cbl-b over C-cbl) values are compared, which is larger, A or B ? Provide the label of your selected option as the answer.
A
(A: 6.4 x, B: 1.9 x)

[P] Cn1cnnc1[C@@](O)(c1cccc(N2Cc3c(cc(CNC4(C)CCC4)cc3C(F)(F)F)C2=O)c1)C(F)(F)F (single isomer, unassigned)
[Q] Cn1cnnc1C1(c2cccc(N3Cc4c(cc(CNC5(C)CCC5)cc4C(F)(F)F)C3=O)c2)CCOCC1
When their fold-selectivity (Cbl-b over C-cbl) values are compared, which is larger, P or Q ? Provide the label of your selected option as the answer.
Q
